Target: UniProt:P03951
Sequence (P03951 388-625 limits assumed): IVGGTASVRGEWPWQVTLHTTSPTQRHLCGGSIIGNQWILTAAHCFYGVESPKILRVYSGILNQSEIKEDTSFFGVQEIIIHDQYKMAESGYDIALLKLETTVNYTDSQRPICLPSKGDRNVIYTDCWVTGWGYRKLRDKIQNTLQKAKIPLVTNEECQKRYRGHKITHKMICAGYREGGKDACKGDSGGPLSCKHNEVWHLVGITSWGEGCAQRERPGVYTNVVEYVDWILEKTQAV
Sequence (P03951 19-387 partner limits assumed): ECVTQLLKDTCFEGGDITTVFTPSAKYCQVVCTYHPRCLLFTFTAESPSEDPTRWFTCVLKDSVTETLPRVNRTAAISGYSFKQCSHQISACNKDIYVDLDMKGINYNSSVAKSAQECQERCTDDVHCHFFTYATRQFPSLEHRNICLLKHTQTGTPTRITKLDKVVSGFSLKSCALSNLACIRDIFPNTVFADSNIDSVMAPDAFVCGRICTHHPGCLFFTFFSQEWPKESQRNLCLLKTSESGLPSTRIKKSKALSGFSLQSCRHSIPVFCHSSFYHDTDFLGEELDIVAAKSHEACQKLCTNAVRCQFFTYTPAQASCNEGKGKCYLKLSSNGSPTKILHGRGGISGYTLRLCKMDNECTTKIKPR
Assay: Factor XIa inhibition assay utilizing a fluorophore-quencher pair peptide substrate (FLINT)
Type: biochemical
Details: end point read at 30 min; 30 min preincubation; 5Fam-KLTRAETV-K5Tamra substrate; read-out: FXIa (EP) IC50
pIC50: −log10 of the molar value.
outcome measure: pIC50

Before answering, review these 3 worked examples.
# compound, system, pIC50
records = [
    ("COC(=O)Nc1ccc(-c2ccn(C3CCc4cc(-c5cc(Cl)ccc5-n5cnnn5)c[n+]([O-])c43)n2)cc1 (racemic)", "UniProt:P03951", 6.96),
    ("O=C(O)c1cccc(-c2ccn(C3CCc4cc(-c5cc(Cl)ccc5-n5cnnn5)c[n+]([O-])c43)n2)c1 (racemic)", "UniProt:P03951", 5.99),
    ("O=C(O)c1cccc(-c2cnn(C3CCc4cc(-c5cc(Cl)ccc5-n5cnnn5)c[n+]([O-])c43)c2)c1 (racemic)", "UniProt:P03951", 7.10),
]

[1] COC(=O)Nc1ccc(-c2cnn([C@@H]3CCc4cc(-c5c(-n6cnnn6)ccc(Cl)c5F)c[n+]([O-])c43)c2)cc1
[2] COC(=O)Nc1ccc(-c2cnn(C3CCc4cc(-c5cc(Cl)ccc5OCC(F)(F)F)c[n+]([O-])c43)c2)cc1 (racemic)
[3] Nc1ccc(-c2cnn(C3CCc4cc(-c5cc(Cl)ccc5-n5cnnn5)c[n+]([O-])c43)c2)c(F)n1 (racemic)
Q. Endpoint returns the given compounds ordered by ascending pIC50. Order the labels as requested and list them.
A. 2, 3, 1
(2: 5.77, 3: 7.57, 1: 8.52)

----------
Molecular target: human plasma kallikrein (Homo sapiens)
Sequence (P03952 391-638 limits assumed): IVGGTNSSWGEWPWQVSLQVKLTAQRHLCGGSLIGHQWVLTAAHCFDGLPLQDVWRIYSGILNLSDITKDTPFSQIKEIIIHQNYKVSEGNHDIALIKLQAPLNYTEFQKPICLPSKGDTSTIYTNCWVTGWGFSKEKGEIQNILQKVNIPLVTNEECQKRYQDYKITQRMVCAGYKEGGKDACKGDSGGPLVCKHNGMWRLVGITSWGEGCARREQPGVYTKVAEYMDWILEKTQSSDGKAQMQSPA
Sequence (P03952 20-390 partner limits assumed): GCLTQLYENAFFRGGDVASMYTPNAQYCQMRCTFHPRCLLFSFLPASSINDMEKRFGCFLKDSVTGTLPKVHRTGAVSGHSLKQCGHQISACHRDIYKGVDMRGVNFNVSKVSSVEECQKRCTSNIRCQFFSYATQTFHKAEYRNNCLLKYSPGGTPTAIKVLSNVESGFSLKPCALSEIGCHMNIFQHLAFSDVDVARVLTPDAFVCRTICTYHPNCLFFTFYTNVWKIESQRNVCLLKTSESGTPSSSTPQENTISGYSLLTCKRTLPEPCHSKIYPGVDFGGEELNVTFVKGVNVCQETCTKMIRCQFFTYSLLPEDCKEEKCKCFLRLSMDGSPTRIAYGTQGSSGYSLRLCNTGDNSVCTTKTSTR
Assay: Kallikrein inhibition assay utilizing a quenched AMC peptide substrate (FLINT)
Settings: kinetic reads at 5 min intervals over 30 min; 30 min preincubation; Z-Gly-Pro-Arg-AMC substrate; read-out: Kallikrein (KIN) IC50
pIC50: −log10 of the molar value.
outcome measure: pIC50

# compound, system, pIC50
rows = [
    ("Nc1ccc(-c2cnn(C3CCc4cc(-c5c(-n6cnnn6)ccc(Cl)c5F)c[n+]([O-])c43)c2)c(Cl)n1 (single isomer, unassigned) [ID No. 22]", "human plasma kallikrein (Homo sapiens)", 6.75),
]

[P] Cc1cc(-c2cnn(C3CCc4cc(-c5c(-n6cnnn6)ccc(Cl)c5F)c[n+]([O-])c43)c2)ccn1 (racemic) [ID No. 23]
[Q] NC(=O)c1ccc(-c2cnn(C3CCc4cc(-c5c(-n6cc(C(F)(F)F)nn6)ccc(Cl)c5F)c[n+]([O-])c43)c2)cc1F (single isomer, unassigned) [ID No. 27]
[R] Nc1ccc(-c2cnn(C3CCCc4cc(-c5c(-n6cnnn6)ccc(Cl)c5F)c[n+]([O-])c43)c2)c(F)n1 (single isomer, unassigned) [ID No. 31]
[S] NC(=O)c1ccc(-c2cnn(C3CCc4cc(-c5c(-n6cc(C(F)(F)F)nn6)ccc(Cl)c5F)c[n+]([O-])c43)c2)cc1F (single isomer, unassigned) [ID No. 28]
Q. List from greatest to least pIC50. Order the labels as requested and list them.
A. S, Q, P, R
